- assayed-system: T1, recombinant human nectin-4 (human, UniProt Q96NY8 32-349)
- T1 construct: nectin-4, human, recombinant; also called complete extracellular domain of nectin-4; source: bought: R&D Systems (Catalog number 2659-N4)
- T1 sequence (looked up): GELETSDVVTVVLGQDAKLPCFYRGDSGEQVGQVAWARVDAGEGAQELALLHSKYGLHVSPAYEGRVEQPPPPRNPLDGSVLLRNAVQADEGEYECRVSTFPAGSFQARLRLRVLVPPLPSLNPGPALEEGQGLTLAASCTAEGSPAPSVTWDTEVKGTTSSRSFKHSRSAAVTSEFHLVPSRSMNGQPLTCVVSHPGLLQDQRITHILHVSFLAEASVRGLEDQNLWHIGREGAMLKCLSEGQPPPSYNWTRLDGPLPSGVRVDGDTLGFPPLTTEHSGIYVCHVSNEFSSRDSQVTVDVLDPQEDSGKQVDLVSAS
- measurement-description: SPR; Biacore T200, human nectin-4 immobilised on CM5 chip by amine coupling, peptides as analytes, single-cycle kinetics, 25 °C, HBS-P+ pH 7.4, no DMSO, 1:1 binding model
- settings: both partners purified
Numbered stars: 1 amine (or outer) side, 2 acyl side, 3 side chain; on linkers, the order of the positions; unused ones are H or OH. Bridge positions count the residues as written; N and C are the ends. Square brackets hold non-standard residues; d marks the D form. * marks the point of attachment. (R)‑NODAGA = O=C(O)CN1CCN(CC(=O)O)CCN([C@H](CCC(=O)*)C(=O)O)CC1; DOTA = O=C(O)CN1CCN(CC(=O)O)CCN(CC(=O)*)CCN(CC(=O)O)CC1; TATA = O=C(CC[*:1])N1CN(C(=O)CC[*:2])CN(C(=O)CC[*:3])C1; 1Nal = N[C@@H](Cc1cccc2ccccc12)C(=O)O; Hyp = O=C(O)[C@@H]1C[C@@H](O)CN1; hArg = N=C(N)NCCCC[C@H](N)C(=O)O

binder	units-label	koff
{(R)‑NODAGA}-CP[1Nal][dD]CMRDWSTP[Hyp]WC-NH2 (linker 1-5-15 via TATA) [10]	s⁻¹	0.00278
{DOTA}-CP[1Nal][dD]CM[hArg]DWSTP[Hyp]WC-NH2 (linker 1-5-15 via TATA) [1f]	s⁻¹	0.0115
{(R)‑NODAGA}-CP[1Nal][dD]CM[hArg]DWSTP[Hyp]WC-NH2 (linker 1-5-15 via TATA) [1e]	s⁻¹	0.00434
